- assay: Plasma concentration after administration to rabbits of 10 mg/kg PO
- Type: in vivo
- experimentalConditions: rabbit, read-out: time for plasma concentration to fall to 50% of maximum value obtained after administration (converted)
propertyMeasured: half-life

-- ask Find the recorded half-life belonging to CC(=O)N(O)C(C)/C=C/c1cccc(Oc2ccc(F)cc2)c1 (centres unmarked) and report it.
-- reply 11.3 h

-- ask Find the recorded half-life belonging to CC(=O)N(O)C(C)/C=C/c1cccc(Oc2ccc(Br)cc2)c1 (centres unmarked) and report it.
-- reply > 24 h

-- ask Find the recorded half-life belonging to CC(=O)N(O)C(C)/C=C/c1cccc(Oc2cccc(C(F)(F)F)c2)c1 (centres unmarked) and report it.
-- reply > 24 h

-- ask Find the recorded half-life belonging to CC(=O)N(O)C(C)/C=C/c1cccc(Oc2cc(Cl)cc(Cl)c2)c1 (centres unmarked) and report it.
-- reply > 24 h

-- ask Find the recorded half-life belonging to CC(=O)N(O)C(C)/C=C/c1cccc(Oc2ccc(Cl)cc2)c1 (centres unmarked) and report it.
-- reply > 24 h

-- ask Find the recorded half-life belonging to CC(=O)N(O)C(C)/C=C/c1cccc(Oc2ccccc2)c1 (centres unmarked) and report it.
-- reply 10.7 h

-- ask Find the recorded half-life belonging to CC(=O)N(O)C(C)/C=C/c1cccc(Oc2ccc(C(C)(C)C)cc2)c1 (centres unmarked) and report it.
-- reply > 24 h

-- ask Find the recorded half-life belonging to CC(=O)N(O)C(C)/C=C/c1cccc(Oc2ccc(C)cc2)c1 (centres unmarked) and report it.
-- reply 4.3 h

* * *

Exercise: state measured Cmax for each of the compounds provided.
- assay: Plasma concentration after administration to rabbits of 10 mg/kg PO
- Format: in vivo
- experimentalConditions: rabbit, read-out: Maximum plasma concentration
Entry rule: numbers only, all in ng/mL.

-- ask Find the recorded Cmax belonging to CC(=O)N(O)C(C)/C=C/c1cccc(Oc2ccccc2)c1 (centres unmarked) and report it.
-- reply 460

-- ask Find the recorded Cmax belonging to CC(=O)N(O)C(C)/C=C/c1cccc(Oc2ccc(F)cc2)c1 (centres unmarked) and report it.
-- reply 1070

-- ask Find the recorded Cmax belonging to CC(=O)N(O)C(C)/C=C/c1cccc(Oc2ccc(C(C)(C)C)cc2)c1 (centres unmarked) and report it.
-- reply 160

-- ask Find the recorded Cmax belonging to CC(=O)N(O)C(C)/C=C/c1cccc(Oc2ccc(Br)cc2)c1 (centres unmarked) and report it.
-- reply 710

-- ask Find the recorded Cmax belonging to CC(=O)N(O)C(C)/C=C/c1cccc(Oc2cccc(C(F)(F)F)c2)c1 (centres unmarked) and report it.
-- reply 840

-- ask Find the recorded Cmax belonging to CC(=O)N(O)C(C)/C=C/c1cccc(Oc2ccc(Cl)cc2)c1 (centres unmarked) and report it.
-- reply 930

-- ask Find the recorded Cmax belonging to CC(=O)N(O)C(C)/C=C/c1cccc(Oc2cc(Cl)cc(Cl)c2)c1 (centres unmarked) and report it.
-- reply 1900

-- ask Find the recorded Cmax belonging to CC(=O)N(O)C(C)/C=C/c1cccc(Oc2ccc(C)cc2)c1 (centres unmarked) and report it.
-- reply 70

* * *

- Test system: stimulated LTB4 synthesis
- assay: Stimulated LTB4 synthesis ex vivo after administration to rabbits of 10 mg/kg PO
- Type: in vivo
Exercise: state measured Time for stimulated LTB4 synthesis ex vivo to return to 50% of original value for each of the molecules provided.

-- ask Find the recorded Time for stimulated LTB4 synthesis ex vivo to return to 50% of original value belonging to CC(=O)N(O)C(C)/C=C/c1cccc(Oc2ccc(Br)cc2)c1 (centres unmarked) and report it.
-- reply > 24 h

-- ask Find the recorded Time for stimulated LTB4 synthesis ex vivo to return to 50% of original value belonging to CC(=O)N(O)C(C)/C=C/c1cccc(Oc2cc(Cl)cc(Cl)c2)c1 (centres unmarked) and report it.
-- reply > 24 h

-- ask Find the recorded Time for stimulated LTB4 synthesis ex vivo to return to 50% of original value belonging to CC(=O)N(O)C(C)/C=C/c1cccc(Oc2ccc(C(C)(C)C)cc2)c1 (centres unmarked) and report it.
-- reply 2.4 h

-- ask Find the recorded Time for stimulated LTB4 synthesis ex vivo to return to 50% of original value belonging to CC(=O)N(O)C(C)/C=C/c1cccc(Oc2ccc(F)cc2F)c1 (centres unmarked) and report it.
-- reply 20.7 h

-- ask Find the recorded Time for stimulated LTB4 synthesis ex vivo to return to 50% of original value belonging to CC(=O)N(O)C(C)/C=C/c1cccc(Oc2ccc(F)cc2)c1 (centres unmarked) and report it.
-- reply 24.0 h

-- ask Find the recorded Time for stimulated LTB4 synthesis ex vivo to return to 50% of original value belonging to CC(=O)N(O)C(C)/C=C/c1cccc(Oc2ccc(Cl)cc2)c1 (centres unmarked) and report it.
-- reply > 24 h

-- ask Find the recorded Time for stimulated LTB4 synthesis ex vivo to return to 50% of original value belonging to CC(=O)N(O)C(C)/C=C/c1cccc(Oc2cccc(C(F)(F)F)c2)c1 (centres unmarked) and report it.
-- reply > 24 h

-- ask Find the recorded Time for stimulated LTB4 synthesis ex vivo to return to 50% of original value belonging to CC(=O)N(O)C(C)/C=C/c1cccc(Oc2ccccc2)c1 (centres unmarked) and report it.
-- reply 22.6 h

* * *

- tgt: cyclo-oxygenase (CO) (Homo sapiens)
- Construct: The leukocytes were homogenised and 5 μM arachidonic acid added
- Sequence (P23219 24-599): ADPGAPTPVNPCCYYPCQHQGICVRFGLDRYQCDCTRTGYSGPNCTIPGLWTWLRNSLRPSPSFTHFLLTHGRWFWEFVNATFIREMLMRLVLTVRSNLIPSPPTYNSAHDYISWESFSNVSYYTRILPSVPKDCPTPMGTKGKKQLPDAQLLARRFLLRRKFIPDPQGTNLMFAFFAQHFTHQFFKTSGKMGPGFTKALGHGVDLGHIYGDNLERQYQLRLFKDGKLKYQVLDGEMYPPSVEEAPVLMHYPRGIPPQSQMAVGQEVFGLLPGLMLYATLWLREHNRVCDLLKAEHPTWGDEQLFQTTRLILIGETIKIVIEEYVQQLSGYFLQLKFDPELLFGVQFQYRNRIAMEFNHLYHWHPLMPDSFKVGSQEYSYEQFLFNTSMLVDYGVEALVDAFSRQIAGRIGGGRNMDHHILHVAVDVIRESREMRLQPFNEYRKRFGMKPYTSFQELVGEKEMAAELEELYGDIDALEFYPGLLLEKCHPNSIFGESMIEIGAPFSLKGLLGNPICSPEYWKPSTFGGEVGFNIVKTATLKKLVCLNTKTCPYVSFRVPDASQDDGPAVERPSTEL
- assay: In vitro inhibition of cyclo-oxygenase in homogenised leukocytes (TXB2 radioimmunoassay)
- experimentalConditions: homogenised leukocytes of aspirin-free volunteers, 5 μM arachidonic acid, 37° C., 5 minutes
propertyMeasured: IC50 (µM)
Entry rule: numbers only, all in µM.

-- ask Find the recorded IC50 belonging to CC(=O)N(O)C(C)/C=C/c1cccc(Oc2ccc(Br)cc2)c1 (centres unmarked) and report it.
-- reply 0.18

-- ask Find the recorded IC50 belonging to CC(=O)N(O)C/C=C/c1cccc(Oc2ccccc2)c1 [reference compound] and report it.
-- reply 1

-- ask Find the recorded IC50 belonging to CC(=O)N(O)C(C)/C=C/c1cccc(Oc2ccccc2)c1 (centres unmarked) and report it.
-- reply 1

* * *

- tgt: 5-lipoxygenase (5-LO) (Homo sapiens)
- Construct: The leukocytes were homogenised and 5 μM arachidonic acid added
- Sequence (P09917 whole entry): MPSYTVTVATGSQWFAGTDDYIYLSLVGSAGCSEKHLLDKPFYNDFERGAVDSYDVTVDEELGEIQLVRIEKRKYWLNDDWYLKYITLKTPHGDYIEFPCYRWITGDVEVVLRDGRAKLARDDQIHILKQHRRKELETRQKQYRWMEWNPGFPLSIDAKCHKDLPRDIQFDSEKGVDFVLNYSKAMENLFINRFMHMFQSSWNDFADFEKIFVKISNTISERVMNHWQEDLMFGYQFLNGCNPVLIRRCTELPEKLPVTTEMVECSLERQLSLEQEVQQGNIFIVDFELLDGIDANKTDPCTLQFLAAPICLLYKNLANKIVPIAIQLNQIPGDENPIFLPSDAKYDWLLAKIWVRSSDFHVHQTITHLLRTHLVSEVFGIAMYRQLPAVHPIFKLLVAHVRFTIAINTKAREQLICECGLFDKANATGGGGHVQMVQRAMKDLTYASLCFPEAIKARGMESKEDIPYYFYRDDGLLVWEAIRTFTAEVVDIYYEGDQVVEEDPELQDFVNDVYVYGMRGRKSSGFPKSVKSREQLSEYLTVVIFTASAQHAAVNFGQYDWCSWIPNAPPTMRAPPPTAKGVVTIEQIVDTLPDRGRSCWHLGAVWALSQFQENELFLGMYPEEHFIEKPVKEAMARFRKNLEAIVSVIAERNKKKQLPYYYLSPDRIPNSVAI
- assay: In vitro inhibition of 5-lipoxygenase in homogenised leukocytes (LTB4 radioimmunoassay)
- experimentalConditions: homogenised leukocytes of aspirin-free volunteers, 5 μM arachidonic acid, 37° C., 5 minutes
Exercise: state measured pIC50 for each of the compounds provided.
On this scale, pIC50 is minus log10 of a concentration expressed in M (mol/L).

-- ask Find the recorded pIC50 belonging to CC(=O)N(O)C(C)/C=C/c1cccc(Oc2cccc(C(F)(F)F)c2)c1 (stereo not drawn) and report it.
-- reply 6.96

-- ask Find the recorded pIC50 belonging to CC(=O)N(O)C(C)/C=C/c1cccc(Oc2cc(Cl)cc(Cl)c2)c1 (stereo not drawn) and report it.
-- reply 6.40

-- ask Find the recorded pIC50 belonging to CC(=O)N(O)C(C)/C=C/c1cccc(Oc2ccccc2)c1 (stereo not drawn) and report it.
-- reply 7.10

-- ask Find the recorded pIC50 belonging to CC(=O)N(O)C(C)/C=C/c1cccc(Oc2ccc(Cl)cc2)c1 (stereo not drawn) and report it.
-- reply 7.10

-- ask Find the recorded pIC50 belonging to CC(=O)N(O)C(C)/C=C/c1cccc(Oc2ccc(C(C)(C)C)cc2)c1 (stereo not drawn) and report it.
-- reply 6.30

-- ask Find the recorded pIC50 belonging to CC(=O)N(O)C(C)/C=C/c1cccc(Oc2ccc(Br)cc2)c1 (stereo not drawn) and report it.
-- reply 8.00
